test system: SN12C renal; experiment: NCI tumour cell line growth inhibition, 48 h
# key: entry, value: GI50

{"smiles entry": "O=C(N/N=C/c1cc(Cl)cc(Cl)c1[O-])c1ccccc1.O=C(N/N=C/c1cc(Cl)cc(Cl)c1[O-])c1ccccc1.[Co+2]", "GI50": "14.8 µM"}
{"smiles entry": "O=C(Nc1cc(Oc2cc(F)c(NC(=O)C3(C(=O)Nc4ccc(F)cc4)CC3)cc2F)ccn1)C1CC1", "GI50": "2.68 µM"}
{"smiles entry": "COc1ccc(/C=C\\c2cc(OC)c(OC)c(OC)c2)cc1OCC(=O)Nc1ccc2nc(C)sc2c1", "GI50": "3.53 µM"}
{"smiles entry": "CCS(=O)(=O)c1ccc(OC)c(Nc2ncc(-c3ccccc3Cl)o2)c1", "GI50": "14.9 µM"}
{"smiles entry": "O=C(C[P+](c1ccccc1)(c1ccccc1)c1ccccc1)C[P+](c1ccccc1)(c1ccccc1)c1ccccc1", "GI50": "0.682 µM"}
{"smiles entry": "O=C(NCCNc1nccc(-c2c(-c3cccc(O)c3)nc3sccn23)n1)c1ccccc1", "GI50": "9.04 µM"}
{"smiles entry": "Cc1c(C(N)=O)sc2c1c(=O)n(Cc1ccccc1)c1nnc(-c3ccc(Br)cc3)n21", "GI50": "2.36 µM"}
{"smiles entry": "COc1cc(NCCN=C(N)NC(N)=NC(C)C)c2ncccc2c1", "GI50": "3.47 µM"}
{"smiles entry": "Cc1cc(Cl)ccc1Nc1nc(C(F)(F)F)ccc1C(=O)N/N=C/c1ccccc1Cl", "GI50": "1.45 µM"}

###

TGI: recorded values
system: SK-MEL-2 melanoma; assay: NCI tumour cell line growth inhibition, 48 h
Where a SMILES comes first, the peptide text is derived from it. The star is where a group is joined. Cbz = O=C(OCc1ccccc1)*; NHNH2 = NN*
parameter measured: TGI

{"compound": "CC(=O)C(=[N+]=[N-])C(=O)N(C)CCC#N", "tgt": "SK-MEL-2 melanoma", "result": "> 10 µM"}
{"compound": "CN1CCN(Cc2ccc3c(NNC(=O)c4ccccc4)nc4cc(F)ccc4n23)CC1", "tgt": "SK-MEL-2 melanoma", "result": "> 70.6 µM"}
{"compound": "Cn1c(=S)c2[nH]c(SCCN3C(=O)c4ccccc4C3=O)nc2n(C)c1=O", "tgt": "SK-MEL-2 melanoma", "result": "> 100 µM"}
{"compound": "C(=Nc1ccc(-c2nc3ccccc3[nH]2)cc1)c1ccco1", "tgt": "SK-MEL-2 melanoma", "result": "> 100 µM"}
{"compound": "Cc1ccc(NC(=O)/C(=N/N(C)C)C(C2OC(=O)c3ccccc32)[N+](=O)[O-])cc1 (stereo not given)", "tgt": "SK-MEL-2 melanoma", "result": "> 100 µM"}
{"compound": "C=CCOC(=O)C1CCC(=O)N1C(=O)C(Cl)Cl (stereo not given)", "tgt": "SK-MEL-2 melanoma", "result": "> 100 µM"}
{"compound": "O=C(NCCNc1nccc(-c2c(-c3cccc(O)c3)nc3sccn23)n1)c1ccccc1", "tgt": "SK-MEL-2 melanoma", "result": "12.9 µM"}
{"compound": "NC(=O)c1c(NC=O)ncn1C1OCC(O)C(O)C1O (stereo not given)", "tgt": "SK-MEL-2 melanoma", "result": "> 100 µM"}
{"compound": "CCOC(=O)CCC(NC(=O)OCc1ccccc1)C(=O)NC(CCC(=O)OCC)C(=O)NN (stereo not given) (Cbz-Glu(OEt)-Glu(OEt)-NHNH2; configuration not given here)", "tgt": "SK-MEL-2 melanoma", "result": "> 100 µM"}
{"compound": "Cc1c(N2C(=O)/C(=C/c3ccc(N(CCC#N)CCC#N)cc3)N=C2c2ccccc2)c(=O)n(-c2ccccc2)n1C", "tgt": "SK-MEL-2 melanoma", "result": "> 100 µM"}

###

tested on: NCI-H23 lung; test: NCI tumour cell line growth inhibition, 48 h; in the data active means GI50 below about 0.43 µM; inactive means the rest
Classes used: True (active), False (inactive)

{"smiles entry": "N#Cc1c(N)nc(NCc2ccccc2)c(C#N)c1-c1ccc(Cl)cc1Cl", "cat": "False"}
{"smiles entry": "ClCc1cccc(CSc2ncnc3c2ncn3Cc2cccc(CCl)c2)c1", "cat": "False"}
{"smiles entry": "COc1ccc(Nc2nc3cc(N)cc(N)c3nc2-c2ccccc2)cc1OC", "cat": "False"}
{"smiles entry": "Nc1nc(=O)n([C@@H]2CS[C@H](CO)O2)cc1F", "cat": "False"}
{"smiles entry": "NC(=S)N=Nc1c(O)c2ccccc2c2ccccc12", "cat": "False"}
{"smiles entry": "C=C1C(=O)O[C@H]2[C@H]1CC/C(COC(=O)NCCc1c[nH]c3ccc(Cl)cc13)=C\\CC[C@@]1(C)O[C@@H]21", "cat": "False"}
{"smiles entry": "O=C(Nc1cc(Oc2cc(F)c(NC(=O)C3(C(=O)Nc4ccc(F)cc4)CC3)cc2F)ccn1)C1CC1", "cat": "False"}
{"smiles entry": "Cc1ccc(-c2nc(-c3cn(C)c4ncccc34)cs2)cc1", "cat": "False"}
{"smiles entry": "COc1cc(/C=C/c2cc(/C=C/c3ccc(O)c(OC)c3)n(C(=O)Nc3ccc(Cl)cc3)n2)ccc1O", "cat": "False"}
{"smiles entry": "CN1CCN(Cc2ccc3c(NNC(=O)c4ccccc4)nc4cc(F)ccc4n23)CC1", "cat": "False"}
{"smiles entry": "O=C(CC(=O)c1cccc(Cl)c1)c1cccc(Cl)c1", "cat": "False"}
{"smiles entry": "N#CN1CC[C@H](C(=O)Nc2cc3cc(C(N)=O)ccc3cn2)C1", "cat": "True"}

###

system: NCI-H460 lung; test: NCI tumour cell line growth inhibition, 48 h
parameter measured: TGI

{"compound": "O=C(CC(=O)c1cccc(Cl)c1)c1cccc(Cl)c1", "result": "> 100 µM"}
{"compound": "O=S(=O)(/N=C(\\NO)Nc1ccc(Cl)cc1)c1ccccc1", "result": "> 59.3 µM"}
{"compound": "C#COc1cccc(Nc2ncnc3cc(NC(=O)[C@H](C)Cl)ccc23)c1", "result": "> 62.5 µM"}
{"compound": "CCN(CC)CCn1[nH]c2c3ccc(=O)cc3sc3c(NCCN)ccc1c32", "result": "1.25 µM"}
{"compound": "CCCN1C(=O)/C(=C\\c2ccc(OC)c(OC)c2)SC1=Nc1ccccc1", "result": "> 100 µM"}
{"compound": "CC(C)(C)C1=CC(=C2C=Cc3ccccc3O2)C=C(C(C)(C)C)C1=O", "result": "4.04 µM"}
{"compound": "O=C(OC/C=C1C=C(OC(=O)c2ccccc2)/C(=N/N(C(=O)c2ccccc2)c2ccccc2)O\\1)c1ccccc1", "result": "20 µM"}
{"compound": "O=C(C/C(CCC(=O)N(Cc1ccccc1)Cc1ccccc1)=N/Nc1ccc([N+](=O)[O-])cc1[N+](=O)[O-])c1ccccc1", "result": "> 100 µM"}
{"compound": "CCN(CC)c1ccc2cc(C(=O)Nc3ccc(C)cc3)c(=N)oc2c1", "result": "> 100 µM"}
{"compound": "C=CCCCCOC1C=CC(O)C(CO)O1 (stereo not given)", "result": "> 100 µM"}

###

system: KM20L2 colon; assay: NCI tumour cell line growth inhibition, 48 h
Entries and their measured TGI follow.

{"molecule": "CC(=O)OC1CC[C@@]2(C)C(CC[C@]3(C)C2CC=C2[C@@H]4C(C)[C@H](C)CCC4(C)CCC23C)[C@@]1(C)C(=O)O (some centres undefined)", "tgt": "KM20L2 colon", "TGI": "29.4 µM"}
{"molecule": "Cc1ccc(C)c(NC(=O)CC2SC(=Nc3ccccc3Cl)NC2=O)c1 (centres undefined)", "tgt": "KM20L2 colon", "TGI": "> 100 µM"}
{"molecule": "COc1ccc(C(=O)N/N=C/c2c(C)n(C)n(-c3ccccc3)c2=O)cc1", "tgt": "KM20L2 colon", "TGI": "> 100 µM"}
{"molecule": "COc1ccc2c(c1)c(=O)c1c(NCCN(C)C)ccc3nnn2c31", "tgt": "KM20L2 colon", "TGI": "14.7 µM"}
{"molecule": "CCn1c2c(c3ccccc31)C(c1ccccc1)CC1C(=O)N(c3ccccc3)C(=O)C21 (centres undefined)", "tgt": "KM20L2 colon", "TGI": "> 100 µM"}
{"molecule": "OC12c3ccccc3C3CCC4(OCCO4)C3C1c1ccccc12 (centres undefined)", "tgt": "KM20L2 colon", "TGI": "> 100 µM"}
{"molecule": "O=C(C/C(CCC(=O)N(Cc1ccccc1)Cc1ccccc1)=N/Nc1ccc([N+](=O)[O-])cc1[N+](=O)[O-])c1ccccc1", "tgt": "KM20L2 colon", "TGI": "> 100 µM"}
{"molecule": "CC(=O)N(O)Cc1ccccc1", "tgt": "KM20L2 colon", "TGI": "> 100 µM"}
{"molecule": "CCCCCCCCCCCCCC(=O)CSCCNC(=O)CCNC(=O)[C@@H](O)C(C)(C)COP(=O)(O)OP(=O)(O)OCC1OC(n2cnc3c(N)ncnc32)C(O)C1OP(=O)(O)O (some centres undefined)", "tgt": "KM20L2 colon", "TGI": "48 µM"}
{"molecule": "CCOC(=O)C(CNc1ccc(O)cc1)NC(=O)c1ccccc1 (centres undefined)", "tgt": "KM20L2 colon", "TGI": "> 100 µM"}
{"molecule": "O=C(N/N=C/c1cc(Cl)cc(Cl)c1[O-])c1ccccc1.O=C(N/N=C/c1cc(Cl)cc(Cl)c1[O-])c1ccccc1.[Co+2]", "tgt": "KM20L2 colon", "TGI": "> 100 µM"}
{"molecule": "COc1cccc2c1C(=O)OC2c1cccc2ccccc12 (centres undefined)", "tgt": "KM20L2 colon", "TGI": "> 100 µM"}
{"molecule": "O=c1[nH]c(=O)n(C2OC(CO)C(O)C2O)cc1OCC(F)(F)F (centres undefined)", "tgt": "KM20L2 colon", "TGI": "> 100 µM"}
{"molecule": "O=C1C2C3C=C4c5ccccc5N(c5ccccc5)C4(C2C(=O)N1c1ccc(Br)cc1)[C@H]1C(=O)N(c2ccc(Br)cc2)C(=O)[C@@H]31 (some centres undefined)", "tgt": "KM20L2 colon", "TGI": "> 100 µM"}
